measurement.description: AUC(0 to infinity) in Sprague-Dawley rat at 15 mg/kg, ig measured upto 72 hrs by LC-MS/MS analysis
Type: ADME, organism-based
Design: route […], dose 15 mg/kg, time <=72
condition.notes: in vivo, po
measured.endpoint: AUC(0-inf)
Write the numeric value and follow it with the unit.

Reported AUC(0-inf) for Cl.Cn1nccc1-c1ccc(C(=O)N[C@@H]2CNCC[C@H]2c2ccc(F)c(F)c2)c(F)c1 : what is it? 2820 ng·h/mL

====

measurement.description: Microsomal stability in human liver microsomes assessed as half life at 50 uM preincubated for 5 mins with NADPH followed by compound addition and measured upto 60 mins by LC-MS/MS analysis
Format: ADME, Microsome
measured.endpoint: half-life at 50 µM (h)
Answers are plain numbers, in h.

Reported half-life at 50 µM for Cl.Cn1nccc1-c1ccc(C(=O)N[C@@H]2CNCC[C@H]2c2ccc(F)c(F)c2)c(F)c1 : what is it? 16.2
